// data source = paper PMC9090415

Measured % inhibition ApPOL 90' of individual entries
target: P. falciparum apicoplast DNA polymerase (Pf-apPOL) (Plasmodium falciparum); assay: Fluorescence-based high-throughput DNA polymerase assay (molecular beacon), primary screen and dose-response;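 further: test concentration in µM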; assay type: biochemical; conditions: conc. 10; 90'; DRC-2
Sequence (Q8ILY1 entry or part of it): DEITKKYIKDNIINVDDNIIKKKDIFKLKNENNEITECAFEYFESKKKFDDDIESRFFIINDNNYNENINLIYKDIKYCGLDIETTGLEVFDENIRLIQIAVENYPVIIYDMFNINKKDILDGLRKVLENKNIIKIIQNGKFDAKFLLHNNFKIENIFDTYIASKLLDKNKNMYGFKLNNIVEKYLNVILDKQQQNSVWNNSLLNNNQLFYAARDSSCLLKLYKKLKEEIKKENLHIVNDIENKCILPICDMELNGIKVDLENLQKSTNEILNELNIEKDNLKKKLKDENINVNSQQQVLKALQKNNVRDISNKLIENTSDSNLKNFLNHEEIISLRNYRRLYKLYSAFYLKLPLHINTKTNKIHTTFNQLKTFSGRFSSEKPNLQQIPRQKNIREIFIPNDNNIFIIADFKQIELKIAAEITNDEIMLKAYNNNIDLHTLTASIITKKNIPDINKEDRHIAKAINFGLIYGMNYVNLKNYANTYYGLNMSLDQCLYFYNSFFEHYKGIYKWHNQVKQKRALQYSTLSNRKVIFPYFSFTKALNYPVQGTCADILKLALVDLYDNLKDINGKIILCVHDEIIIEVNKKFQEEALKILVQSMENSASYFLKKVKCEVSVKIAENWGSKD

| molecule | % inhibition ApPOL 90' (%) |
| --- | --- |
| COc1ccc(C)cc1NC(=O)Cn1ccc2c(=O)[nH]ccc21 [Molecule 15, COc1ccc(cc1NC(=O)Cn1ccc2c1cc[nH]c2=O)C] | 64 |
| O=C(O)c1cccc(N2N=C(C(F)(F)F)/C(=C/c3ccc(-c4ccccc4[N+](=O)[O-])o3)C2=O)c1 [Molecule 100] | 51 |
| CCCCCCCCCCCC1SCC(C(=O)O)N1C(C)=O (stereo not shown) [Molecule 72] | 26 |
| Cc1cc(C)cc(-n2nc3c(c2NC(=O)c2ccco2)CSC3)c1 [KU0055926] | 38 |
| O=C(Nc1cccc(Cl)c1)Nc1nnc(-c2ccncc2)s1 [KU0022348] | 65 |
| COc1ccc(C=C2Oc3c(ccc4c3CN(c3ccc5c(c3)OCO5)CO4)C2=O)cc1OC [KU0199426] | 27 |
| O=C(CSc1nc2ccccc2s1)Nc1ncc([N+](=O)[O-])s1 [KU0019667] | -10 |

====

Listing: % inhibition apPOL 180' of selected compounds
Target: P. falciparum apicoplast DNA polymerase (Pf-apPOL) (Plasmodium falciparum)
Assay: Fluorescence-based high-throughput DNA polymerase assay (molecular beacon), primary screen and dose-response;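 further: test concentration in µM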
Type: biochemical
Details: DRC-2, 180', concentration 5
Description: The HT assay employs a molecular beacon, a stem-loop DNA template with a Cy3 dye and the Black Hole Quencher on the 3′ and 5′ ends of the DNA, respectively. Pf-apPOL concentration is based on a calculated absorptivity of ε280 = 56750 M^−1 cm^−1. […] To identify apPOL inhibitors we utilised our previously developed high-throughput DNA polymerase assay. […] The assay accurately recapitulates the kinetic behaviour of apPOL, as measured through more conventional low-throughput gel-based assays. […]
measuredParameter: % inhibition apPOL 180' (%)

| compound | measuredParameter | numericValue |
| --- | --- | --- |
| CN1CC(=Cc2ccco2)C(=O)C(=Cc2ccco2)C1 | % inhibition apPOL 180' | 8 |
| CN(C)C=C1SCc2ccccc2C1=O | % inhibition apPOL 180' | -3.45 |
| O=C(O)C(=O)Nc1nc(-c2ccc3c(c2)OCCO3)cs1 | % inhibition apPOL 180' | 9 |
| O=C(O)CC1=NN(c2cccc([N+](=O)[O-])c2)C(=O)C1 | % inhibition apPOL 180' | 7.6 |
| Cn1nc(C(=O)N2CCc3c(nc4cc(-c5ccccc5)[nH]n4c3=O)C2)c2ccccc21 | % inhibition apPOL 180' | 16 |
| CCSc1nnc(NC(=O)Cc2csc(NC(=O)c3cnccn3)n2)s1 | % inhibition apPOL 180' | 1.68 |
| O=C(Nc1nnc(-c2cccs2)o1)c1ccc([N+](=O)[O-])o1 | % inhibition apPOL 180' | 7 |
| O=C(Nc1nnc(-c2ccno2)o1)c1ccc2c(c1)OCO2 | % inhibition apPOL 180' | -14 |
| CSCCC(C)(O)CNC(=O)C1CC1 (stereo not drawn) | % inhibition apPOL 180' | 5 |
| O=C(O)c1c(F)c(F)c(-c2c(F)c(F)c(C(=O)O)c(F)c2F)c(F)c1F | % inhibition apPOL 180' | -1 |
| O=c1cc(-c2ccccc2)oc2c(O)c(O)ccc12 | % inhibition apPOL 180' | 3.63 |
| O=C(NNC(=O)C(F)(F)Sc1ccccc1)c1ccsc1 [Molecule 68, O=C(C(Sc1ccccc1)(F)F)NNC(=O)c1cscc1] | % inhibition apPOL 180' | -3.25 |
| Oc1ccc(N=Nc2ccccc2)c(O)c1 | % inhibition apPOL 180' | -4.42 |
| CC1=NNC(=O)C1Oc1ccc(Cl)cc1Cl (stereo not drawn) | % inhibition apPOL 180' | -6 |
| Cc1nn(CC(=O)NCCSCc2ccco2)c(C)c1Br | % inhibition apPOL 180' | -0.774 |
| CN(C)C=CC(=O)c1ccccn1 | % inhibition apPOL 180' | -1.23 |
| O=[N+]([O-])c1cc2c(cc1CN1CCN(c3cccc(Cl)c3)CC1)OCO2 | % inhibition apPOL 180' | -5.3 |
| O=[N+]([O-])c1cc2c(cc1CN1CCCCCC1)OCO2 | % inhibition apPOL 180' | 0.589 |
| COc1cc(/C=C2\S/C(=N/C(C)=O)NC2=O)cc(Br)c1OCC(=O)O | % inhibition apPOL 180' | -1.41 |
| Cc1ncc(CSc2nc(C(C)(C)C)cs2)c(CO)c1O | % inhibition apPOL 180' | -4.6 |
| O=C(c1c[nH]c2ncccc12)N1CCCCCC1 [Molecule 51, O=C(c1c[nH]c2c1cccn2)N1CCCCCC1] | % inhibition apPOL 180' | -0.742 |

====

molecular target: UniProt Q8ILY1; assay: Fluorescence-based high-throughput DNA polymerase assay (molecular beacon), primary screen and dose-response; format: biochemical; conditions: DRC-2; 180'; concentration 2.5;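 further: test concentration in µM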

| compound | assayTarget | % inhibition apPOL 180' [%] |
| --- | --- | --- |
| O=C1C(=Cc2ccccc2O)Oc2ccc(O)cc21 [KU0196475] | UniProt Q8ILY1 | -3.48 |
| O=C(O)c1ccc(-c2nc3cc(-c4ccc5nc(-c6ccc(C(=O)O)cc6)[nH]c5c4)ccc3[nH]2)cc1 [Molecule 1] | UniProt Q8ILY1 | 14 |
| CCC(C)NC(=O)c1cc(NC(C)=O)cc2nc(C)ccc12 (centres unmarked) [KU0206314] | UniProt Q8ILY1 | 1.48 |
| COc1ccc(-c2cc3nc4c(c(=O)n3[nH]2)CCN(C(=O)CCc2ccccc2)C4)cc1 [Molecule 17] | UniProt Q8ILY1 | -5 |
| CCOC(=O)C1=C2c3cc(OC)c(OC)cc3CC(C)(C)N2C(=O)C1=O [KU0193659] | UniProt Q8ILY1 | -2 |

====

Target: bacteriophage T4 DNA polymerase (Enterobacteria phage T4, UniProt P04415)
Construct: made in house
Sequence (P04415 1-898): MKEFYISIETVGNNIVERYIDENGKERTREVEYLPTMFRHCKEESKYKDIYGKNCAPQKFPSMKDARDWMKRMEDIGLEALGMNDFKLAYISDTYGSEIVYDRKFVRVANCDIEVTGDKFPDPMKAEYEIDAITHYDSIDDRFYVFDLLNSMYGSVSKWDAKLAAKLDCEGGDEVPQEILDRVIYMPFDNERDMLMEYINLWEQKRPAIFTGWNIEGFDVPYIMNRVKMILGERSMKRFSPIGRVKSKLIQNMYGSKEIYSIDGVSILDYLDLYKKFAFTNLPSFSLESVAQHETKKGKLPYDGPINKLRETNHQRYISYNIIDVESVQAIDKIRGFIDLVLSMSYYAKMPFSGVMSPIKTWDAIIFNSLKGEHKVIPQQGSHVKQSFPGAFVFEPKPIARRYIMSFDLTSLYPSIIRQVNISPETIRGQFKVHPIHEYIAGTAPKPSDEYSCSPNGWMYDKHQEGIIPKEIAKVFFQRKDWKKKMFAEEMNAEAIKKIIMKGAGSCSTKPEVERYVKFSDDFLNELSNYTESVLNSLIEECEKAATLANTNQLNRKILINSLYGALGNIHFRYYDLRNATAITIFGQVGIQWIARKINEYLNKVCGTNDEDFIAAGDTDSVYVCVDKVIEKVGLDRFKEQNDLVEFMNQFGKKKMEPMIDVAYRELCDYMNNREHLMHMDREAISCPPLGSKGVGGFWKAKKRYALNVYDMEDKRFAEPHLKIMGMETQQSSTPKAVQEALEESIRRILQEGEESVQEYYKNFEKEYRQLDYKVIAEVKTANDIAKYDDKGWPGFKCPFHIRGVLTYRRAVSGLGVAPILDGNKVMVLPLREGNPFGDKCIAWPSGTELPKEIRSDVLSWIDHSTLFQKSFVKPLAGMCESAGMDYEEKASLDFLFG
Assay: Counter-screen against bacteriophage T4 DNA polymerase
Type: biochemical
Conditions: DRC-2; 10'; concentration 10

| compound | assayTarget | % inhibition T4 10' |
| --- | --- | --- |
| CC(=O)c1cc2c(N)c(/C(N)=N/C#N)sc2nc1C | bacteriophage T4 DNA polymerase (Enterobacteria phage T4, UniProt P04415) | -18% |
| COc1ccc(C(=O)N2CCc3c(nc4cc(-c5ccccc5Cl)[nH]n4c3=O)C2)cn1 | bacteriophage T4 DNA polymerase (Enterobacteria phage T4, UniProt P04415) | -17% |
| Cl.NC(CO)C(=O)NNCc1ccc(O)c(O)c1O (stereo not drawn) | bacteriophage T4 DNA polymerase (Enterobacteria phage T4, UniProt P04415) | -11% |
